Experiment: photoluminescence quantum yield (fraction); solvent given as SMILES
Details: in c1ccccc1
photoluminescence quantum yield: recorded values

{"compound": "COC(=O)C(Cc1ccc2oc(-c3ccc(N(C)c4ccccc4)cc3)nc2c1)NC(=O)OC(C)(C)C (centres undefined)", "photoluminescence quantum yield": 0.76}
{"compound": "CC(C)[Si]1(C(C)C)c2cc(C=C(C#N)C#N)ccc2-c2ccc(N(C)C)cc21", "photoluminescence quantum yield": 0.36}
{"compound": "Cc1ccc(-c2c3ccc([nH]3)c3nc(c(-c4ccc([N+](=O)[O-])cc4)c4ccc([nH]4)c4ccc([nH]4)c(-c4ccc(C)cc4)c4ccc2o4)C=C3)cc1", "photoluminescence quantum yield": 0.098}

Given item O=c1oc2c(ccc3cc(O)ccc32)nc1-c1ccccc1 , the value recorded as its photoluminescence quantum yield is 0.604

Given item Cc1cc(C(F)(F)F)nc2c1ccc1nc(-c3ccc(Cl)cc3)cn12 , the value recorded as its photoluminescence quantum yield is 0.88

Given item CCOC(=O)CN(CC(=O)OCC)c1ccc(-c2cc(-c3ccncc3)nc(-c3ccncc3)c2)cc1 , the value recorded as its photoluminescence quantum yield is 0.5

Given item COC(=O)C(Cc1ccc2oc(-c3ccc(N(C)C)cc3)nc2c1)NC(=O)OC(C)(C)C (centres undefined) , the value recorded as its photoluminescence quantum yield is 0.97

Given item CC(C)(C)c1ccc2oc(-c3ccc(-c4nc5cc(C(C)(C)C)ccc5o4)s3)nc2c1 , the value recorded as its photoluminescence quantum yield is 0.82

The measured values listed here are drawn from the Deep4Chem optical property database.
